Reference for the values: patent US20230312550A1

# experimental protocol: Metabolic stability in human liver microsomes (HLM)
# condition description: human, HLM CLint, n = 1 or average of n = 2-3
endpoint name: microsomal CLint (µL/min/mg)

Example entries and their recorded answers appear below.
In [3]: df
Out[3]:
                                   compound     endpoint_name  quantitative_readout
0  CCC1(O)CCN(c2ccc3nccc(C(=O)NCC(=O)N4CSC[C@H]4C#N)c3c2)CC1 [Example 189]  microsomal CLint                    11
1  CC1(C)CN(c2ccc3nccc(C(=O)NCC(=O)N4CSC[C@H]4C#N)c3c2)C(=O)O1 [Example 13]  microsomal CLint                    12
2  N#C[C@@H]1CSCN1C(=O)CNC(=O)c1ccnc2ccc(N3CC(C(F)(F)F)C3)cc12 [Example 26]  microsomal CLint                    31
3  N#C[C@@H]1CSCN1C(=O)CNC(=O)c1ccnc2ccc(N3CC4CCC(C3)O4)cc12 [Example 79]  microsomal CLint                    21

(I) N#C[C@@H]1CSCN1C(=O)CNC(=O)c1ccnc2ccc(-n3ncc4c3CCCC4)cc12 [Example 114]
(II) N#C[C@@H]1CSCN1C(=O)CNC(=O)c1c(F)cnc2ccc(N3CCOCC3)cc12 [Example 2]
(III) C[C@H]1CCN(c2ccc3nccc(C(=O)NCC(=O)N4CSC[C@H]4C#N)c3c2)C1 [Example 54]
(IV) N#C[C@@H]1CSCN1C(=O)CNC(=O)c1ccnc2ccc(-c3cncnc3)cc12 [Example 127]
Please order the records by their reported microsomal CLint, lowest number first. Form entry: ranked labels (order as requested).
IV, II, III, I
